Below: a set of entries, each annotated with reported EC50 (read off the curve).
molecular target: T1, human transferrin receptor (TfR) ectodomain (ECD) (human, biotinylated where captured on streptavidin ; Biotinylated (NHS-biotin on amines, or BirA on the Avi-tag) where captured on streptavidin. It forms a homodimer, and the unique chain is given once.); assay: phage ELISA, clone on phage, target coated on plate
T1 construct: made in HEK293; also called human TfR; huTfR; not shown: The C-terminal cleavable His- and Avi-tags
T1 sequence (chain, as listed by the source limits assumed, form in doubt): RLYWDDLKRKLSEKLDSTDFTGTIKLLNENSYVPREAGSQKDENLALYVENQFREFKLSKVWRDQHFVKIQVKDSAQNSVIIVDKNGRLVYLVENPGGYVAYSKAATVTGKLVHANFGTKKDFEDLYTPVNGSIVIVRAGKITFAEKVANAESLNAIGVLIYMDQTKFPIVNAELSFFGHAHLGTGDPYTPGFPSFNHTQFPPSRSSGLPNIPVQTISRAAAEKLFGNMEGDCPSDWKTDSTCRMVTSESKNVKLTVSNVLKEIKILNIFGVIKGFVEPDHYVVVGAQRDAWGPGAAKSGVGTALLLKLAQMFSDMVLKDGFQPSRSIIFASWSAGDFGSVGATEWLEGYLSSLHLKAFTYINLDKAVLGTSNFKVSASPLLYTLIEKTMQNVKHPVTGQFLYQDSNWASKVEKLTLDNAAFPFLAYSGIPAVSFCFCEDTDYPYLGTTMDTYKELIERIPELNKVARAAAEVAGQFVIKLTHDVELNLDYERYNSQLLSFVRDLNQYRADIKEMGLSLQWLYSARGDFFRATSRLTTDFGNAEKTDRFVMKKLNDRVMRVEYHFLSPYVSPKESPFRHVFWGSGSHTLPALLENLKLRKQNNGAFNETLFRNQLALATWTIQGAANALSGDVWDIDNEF
recorded endpoint: EC50 (read off the curve)

- binder: "Clone CH2A2.5 (designed binder, modified human IgG1 Fc, phage display) PCPAPELLGGPSVFLFPPKPKDTLMISRTPEVTCVVVDVSHEDPEVAFTWYVDGVPVRWEWQNPREEQYNSTYRVVSVLTVLHQDWLNGKEYKCKVSNKALPAPIEKTISKAKGQPREPQVYTLPPSRDELTKNQVSLTCLVKGFYPSDIAVEWESNGQPENNYKTTPPVLDSDGSFFLYSKLTVDKSRWQQGNVFSCSVMHEALHNHYTQKSLSLSPGK"
  experimental value: "~0.008 OD268 (phage solution)"
- binder: "Clone CH2A2.16 (designed binder, modified human IgG1 Fc, phage display) PCPAPELLGGPSVFLFPPKPKDTLMISRTPEVTCVVVDVSHEDPEVWFEWYVDGVFVGVAYDVPREEQYNSTYRVVSVLTVLHQDWLNGKEYKCKVSNKALPAPIEKTISKAKGQPREPQVYTLPPSRDELTKNQVSLTCLVKGFYPSDIAVEWESNGQPENNYKTTPPVLDSDGSFFLYSKLTVDKSRWQQGNVFSCSVMHEALHNHYTQKSLSLSPGK"
  experimental value: "~0.04 OD268 (phage solution)"
- binder: "Clone CH2A2.4 (designed binder, modified human IgG1 Fc, phage display) PCPAPELLGGPSVFLFPPKPKDTLMISRTPEVTCVVVDVSHEDPEVSFEWYVDGVPVRWEWQWPREEQYNSTYRVVSVLTVLHQDWLNGKEYKCKVSNKALPAPIEKTISKAKGQPREPQVYTLPPSRDELTKNQVSLTCLVKGFYPSDIAVEWESNGQPENNYKTTPPVLDSDGSFFLYSKLTVDKSRWQQGNVFSCSVMHEALHNHYTQKSLSLSPGK"
  experimental value: "~0.02 OD268 (phage solution)"
- binder: "Clone CH2A2.1 (designed binder, modified human IgG1 Fc, phage display) PCPAPELLGGPSVFLFPPKPKDTLMISRTPEVTCVVVDVSHEDPEVEFIWYVDGVDVRYEWQLPREEQYNSTYRVVSVLTVLHQDWLNGKEYKCKVSNKALPAPIEKTISKAKGQPREPQVYTLPPSRDELTKNQVSLTCLVKGFYPSDIAVEWESNGQPENNYKTTPPVLDSDGSFFLYSKLTVDKSRWQQGNVFSCSVMHEALHNHYTQKSLSLSPGK"
  experimental value: "~0.03 OD268 (phage solution)"
